- Target: c-Src SH2;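 note: peptide library displayed on the E. coli surface as eCPX fusions, selected cells deep-sequenced, score is each peptide's frequency after selection divided by its frequency in the input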
- Method description: SH2 binding enrichment of the phosphorylated peptide, bacterial display (enrichment ratio); higher = better substrate or ligand; peptides without Tyr show the background
Measurement name: SH2 binding enrichment

• LEGKEYRMSGE [KRT3_Y511_E509K] = 0.362
• IVVVPYEPPEV [TP53_Y220_S215I] = 0.811
• QEIATYRRLRE [KRT17_Y384_L388R] = 0.441
• MTKEQYIKMNQ [ARFGEF2_Y797_R802Q] = 0.517
• FARNSYVAGQF [G6PD_Y107_YF] = 0.442
• EPSVPYRGTVF [GLI3_Y104] = 0.491
• HGEAYYSEVKA [PAK5_Y182_P187A] = 4.04
